experimental.system: Human Recombinant Matriptase 2 (Homo sapiens, UniProt Q8IU80)
Construct: made in house
Sequence (Q8IU80 1-811): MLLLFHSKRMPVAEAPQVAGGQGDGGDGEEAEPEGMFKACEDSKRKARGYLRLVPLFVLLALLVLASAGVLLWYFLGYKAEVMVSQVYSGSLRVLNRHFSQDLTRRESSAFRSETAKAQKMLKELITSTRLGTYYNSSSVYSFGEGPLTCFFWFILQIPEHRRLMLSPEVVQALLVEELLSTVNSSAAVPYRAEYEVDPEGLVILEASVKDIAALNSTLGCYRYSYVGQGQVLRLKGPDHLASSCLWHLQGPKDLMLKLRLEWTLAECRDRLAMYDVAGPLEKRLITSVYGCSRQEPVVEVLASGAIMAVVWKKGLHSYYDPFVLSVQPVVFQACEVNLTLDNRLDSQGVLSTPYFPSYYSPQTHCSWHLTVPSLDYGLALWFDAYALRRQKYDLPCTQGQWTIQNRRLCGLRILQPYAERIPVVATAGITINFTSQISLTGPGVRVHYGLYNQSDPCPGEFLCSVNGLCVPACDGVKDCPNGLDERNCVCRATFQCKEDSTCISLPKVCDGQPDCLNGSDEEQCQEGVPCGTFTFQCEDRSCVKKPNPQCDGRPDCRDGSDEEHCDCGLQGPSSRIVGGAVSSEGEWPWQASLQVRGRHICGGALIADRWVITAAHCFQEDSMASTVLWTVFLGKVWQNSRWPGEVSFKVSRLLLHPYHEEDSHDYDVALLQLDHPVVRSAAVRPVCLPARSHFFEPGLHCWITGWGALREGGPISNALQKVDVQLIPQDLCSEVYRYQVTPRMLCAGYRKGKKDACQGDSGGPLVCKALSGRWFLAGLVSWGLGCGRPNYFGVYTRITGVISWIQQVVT
assay.info: Matriptase 2 inhibition, fluorescence based assay (Method I)
Format: biochemical
condition.set: Table A; Ki of Matriptase-2 given as class symbols; read-out: Mat-2 Ki
test.readout: Ki

Would you please look over these solved cases?
- molecule: "NCc1ccc2cc(C(=O)O)n(Cc3cc(NS(=O)(=O)Cc4ccco4)cc4ccccc34)c2n1 [Compound 236]"
  Ki: "100 to 500 nM"
- molecule: "NCc1ccc2cc(C(=O)O)n(Cc3cc(NS(=O)(=O)N4CCC(C(F)(F)F)CC4)cc4ccccc34)c2c1 [Compound 393]"
  Ki: "500 to 3000 nM"
- molecule: "CN1CCC(COC(=O)c2cc3ccc(CN)cc3n2Cc2cc(NS(=O)(=O)Cc3cccs3)cc3ccccc23)CC1 [Compound 379]"
  Ki: "≤ 100 nM"

Query block: Return reported Ki; argument: C[C@@H]1CN(C(=O)Nc2cc(Cn3c(C(=O)O)cc4ccc(CN)nc43)c3ccccc3c2)C[C@H](C)N1 [Compound 304]
Result block: 500 to 3000 nM

====

The compounds listed here are annotated with their Ki.
experimental.system: Human Recombinant Matriptase 2 (Homo sapiens, UniProt Q8IU80)
Construct: made in house
assay.info: Matriptase 2 inhibition, fluorescence based assay (Method I)
Type: biochemical
condition.set: Table A; Ki of Matriptase-2; read-out: Mat-2 Ki

Some compounds with known Ki results, for comparison:
- compound: "CN1CC[C@H](COC(=O)c2cc3ccc(CN)nc3n2Cc2cc(NS(=O)(=O)Cc3ccccc3)cc3ccccc23)CC1=O (racemic)"
  Ki: "≤ 100 nM"
- compound: "NCc1ccc2cc(C(=O)OCCCCN3CCOCC3)n(Cc3cc(NS(=O)(=O)Cc4ccccc4)cc4ccccc34)c2n1"
  Ki: "≤ 100 nM"
- compound: "CC(C)C(=O)O[C@H](C)OC(=O)c1cc2ccc(CN)nc2n1Cc1cc(NS(=O)(=O)Cc2ccccc2)cc2ccccc12 (racemic)"
  Ki: "500 to 3000 nM"
- compound: "NCCOC(=O)c1cc2ccc(CN)nc2n1Cc1cc(NS(=O)(=O)Cc2ccccc2)cc2ccccc12"
  Ki: "100 to 500 nM"
- compound: "NCc1ccc2cc(C(=O)OC[C@H]3COCCN3)n(Cc3cc(NS(=O)(=O)Cc4ccsc4)cc4ccccc34)c2n1"
  Ki: "≤ 100 nM"

Here is the next item to consider.
Query block: Entry under review: COCCN1CC[C@H](COC(=O)c2cc3ccc(CN)nc3n2Cc2cc(NS(=O)(=O)Cc3c(C)cccc3C)cc3ccccc23)C1 (racemic) . Reported Ki?
Result block: ≤ 100 nM

====

experimental.system: Human Recombinant Matriptase 2 (Homo sapiens, UniProt Q8IU80)
Construct: made in house
assay.info: Matriptase 2 inhibition, fluorescence based assay (Method I)
Assay type: biochemical
condition.set: Table A; Ki of Matriptase-2 given as class symbols; read-out: Mat-2 Ki
// reported Ki per item

Example entries begin here.
- molecule: "CC(=O)O[C@H](C)OC(=O)c1cc2ccc(CN)nc2n1Cc1cc(NS(=O)(=O)CC2CCNCC2)cc2ccccc12 (racemic)"
  reported.measurement: "100 to 500 nM"
- molecule: "CN1CCC(COC(=O)c2cc3ccc(CN)nc3n2Cc2cc(NS(=O)(=O)Cc3ccccc3)cc3c2CCCC3)CC1"
  reported.measurement: "≤ 100 nM"

Now look at this one.
Query block: Kindly state the measured Ki obtained for NCc1ccc2cc(C(=O)O)n(Cc3cc(NS(=O)(=O)C[C@H]4COCCN4)cc4ccccc34)c2n1 (racemic) with Human Recombinant Matriptase 2 (Homo sapiens, UniProt Q8IU80).
Result block: 100 to 500 nM

====

experimental.system: Human Recombinant Matriptase 2 (Homo sapiens)
Construct: made in house
Sequence (Q8IU80 1-811): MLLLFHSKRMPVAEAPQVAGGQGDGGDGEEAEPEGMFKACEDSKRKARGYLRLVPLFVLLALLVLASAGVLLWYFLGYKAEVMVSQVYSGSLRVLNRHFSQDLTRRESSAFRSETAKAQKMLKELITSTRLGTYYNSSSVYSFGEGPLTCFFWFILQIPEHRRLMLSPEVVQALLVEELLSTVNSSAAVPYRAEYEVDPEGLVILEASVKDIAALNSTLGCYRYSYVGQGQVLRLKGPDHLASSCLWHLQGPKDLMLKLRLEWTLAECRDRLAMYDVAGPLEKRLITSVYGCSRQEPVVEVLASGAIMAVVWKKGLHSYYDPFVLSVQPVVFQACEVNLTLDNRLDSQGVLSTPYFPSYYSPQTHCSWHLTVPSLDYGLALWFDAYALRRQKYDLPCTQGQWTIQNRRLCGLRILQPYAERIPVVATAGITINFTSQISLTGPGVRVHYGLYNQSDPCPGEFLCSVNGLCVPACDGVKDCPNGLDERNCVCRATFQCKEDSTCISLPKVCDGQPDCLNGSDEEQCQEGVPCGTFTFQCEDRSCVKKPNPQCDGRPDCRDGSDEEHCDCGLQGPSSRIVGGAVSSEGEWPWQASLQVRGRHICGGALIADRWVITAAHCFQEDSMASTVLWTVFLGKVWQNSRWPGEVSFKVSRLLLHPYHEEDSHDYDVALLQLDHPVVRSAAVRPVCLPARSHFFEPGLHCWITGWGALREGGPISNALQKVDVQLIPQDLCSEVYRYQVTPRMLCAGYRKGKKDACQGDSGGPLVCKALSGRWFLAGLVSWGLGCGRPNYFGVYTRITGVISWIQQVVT
assay.info: Matriptase 2 inhibition, fluorescence based assay (Method I)
Type: biochemical
condition.set: Table A; Ki of Matriptase-2; read-out: Mat-2 Ki
pKi: −log10 of the molar value.
test.readout: pKi

- molecule: "CNCCOC(=O)c1cc2ccc(CN)nc2n1Cc1cc(NS(=O)(=O)Cc2cccs2)cc2ccccc12 [Compound 152]"
  experimental.system: "Human Recombinant Matriptase 2 (Homo sapiens)"
  pKi: "≥ 7.00"

Now, please, on to the next molecule.
Query block: # lookup: pKi of Cc1cccc(C)c1CS(=O)(=O)Nc1cc(Cn2c(C(=O)NCCN3CCOCC3)cc3ccc(CN)nc32)c2ccccc2c1 [Compound 196]
Result block: ≥ 7.00

====

experimental.system: Human Recombinant Matriptase 2 (Homo sapiens, UniProt Q8IU80)
Construct: made in house
assay.info: Matriptase 2 inhibition, fluorescence based assay (Method I)
Format: biochemical
condition.set: Table B; Human Recombinant Matriptase 2, 3.5 nM enzyme, 62 μM substrate, 30 mins preincubation; read-out: Mean Ki
test.readout: Ki

Consider the worked cases shown below.
- compound: "C=Cc1c(N)cc(Br)cc1Cn1c(C(=O)OCC2CCN(C)CC2)cc2ccc(CN)nc21"
  Ki: "> 3000 nM"
- compound: "CN1CCC(COC(=O)c2cc3ccc(CN)nc3n2Cc2cc(NS(=O)(=O)CC3CC3)cc3ccccc23)CC1"
  Ki: "100 to 500 nM"
- compound: "CN1CC(CCOC(=O)c2cc3ccc(CN)nc3n2Cc2cc(NS(=O)(=O)Cc3ccsc3)cc3ccccc23)CC1=O (stereo not shown)"
  Ki: "≤ 100 nM"

Query block: # value lookup — system Human Recombinant Matriptase 2 (Homo sapiens, UniProt Q8IU80), readout Ki, item CN1CCC(CCOC(=O)c2cc3ccc(CN)nc3n2Cc2cc(NS(=O)(=O)Cc3ccsc3)cc3ccccc23)CC1=O (stereo not shown)
Result block: ≤ 100 nM

Query block: Similarly, `CN1CCC(CCOC(=O)c2cc3ccc(CN)nc3n2Cc2cc(NS(=O)(=O)Cc3ccccc3)c3ccccc3c2)CC1` ?
Result block: 100 to 500 nM

Query block: Same lookup for CN1CCC(COC(=O)c2cc3ccc(CN)nc3n2Cc2cc(NS(=O)(=O)Cc3ccsc3)cc3ccccc23)CC1=O (stereo not shown) , please.
Result block: ≤ 100 nM

Query block: Same lookup for `CN(C)C(=O)CCCOC(=O)c1cc2ccc(CN)nc2n1Cc1cc(CS(=O)(=O)Cc2ccsc2)cc2ccccc12` , please.
Result block: ≤ 100 nM

Query block: Now the same for CN1CC(COC(=O)c2cc3ccc(CN)nc3n2Cc2cc(NS(=O)(=O)Cc3ccsc3)cc3ccccc23)CC1=O (stereo not shown)
Result block: ≤ 100 nM

Query block: And then `CN1CCC(CCCOC(=O)c2cc3ccc(CN)nc3n2Cc2cc(NS(=O)(=O)Cc3ccccc3)cc3ccccc23)CC1` , what is it?
Result block: ≤ 100 nM

Query block: Another compound: `CN1CCC(COC(=O)c2cc3ccc(CN)nc3n2Cc2cccn3ccnc23)CC1`
Result block: > 3000 nM

Query block: Thanks! And CN1CCC(COC(=O)c2cc3ccc(CN)nc3n2CC(NS(=O)(=O)Cc2ccccc2)c2ccccc2)CC1 (stereo not shown) ?
Result block: > 3000 nM

Query block: Now consider `CN1CCC(COC(=O)c2cc3ccc(CN)nc3n2Cc2cc(NS(=O)(=O)Cc3ccccc3)cs2)CC1` .
Result block: > 3000 nM
